system: Bacillus cereus; test: Minimum inhibitory concentration (MIC) preventing growth of Bacillus cereus; type: functional
ENDPOINT: MIC (µg/mL)

Some solved entries appear below for comparison.
O=C(O)c1cn(C2CC2)c2cc(N3CCC3)c(F)cc2c1=O
0.06
CN(C)C1CN(c2nc3c(cc2F)c(=O)c(C(=O)O)cn3C2CC2)C1
0.12

a: CC1(N)CN(c2cc3c(cc2F)c(=O)c2c(=O)[nH]sc2n3C2CC2)C1
b: NCC1CN(c2c(F)cc3c(=O)c(C(=O)O)cn(C4CC4)c3c2F)C1
c: CN(C)C1(C)CN(c2c(F)cc3c(=O)c(C(=O)O)cn(C4CC4)c3c2F)C1
d: CNC1(C)CN(c2cc3c(cc2F)c(=O)c2c(=O)[nH]sc2n3C2CC2)C1
e: CCNCC1CN(c2c(F)cc3c(=O)c(C(=O)O)cn(C4CC4)c3c2F)C1
Parameters: sort_field (MIC), sort_dir (desc). // ordering of labels required in reply e, c, b, d, a
(e: 0.5 µg/mL, c: 0.25 µg/mL, b: 0.12 µg/mL, d: 0.06 µg/mL, a: 0.03 µg/mL)

1: O=C(O)c1cn(C2CC2)c2c(F)c(N3CC(O)C3)c(F)cc2c1=O
2: CC1(N)CN(c2c(F)cc3c(=O)c(C(=O)O)cn(-c4ccc(F)cc4)c3c2F)C1
Look at 1 and 2 . Which one has the lower recorded MIC number? Please reply using the label of the selected record. 1

A: CCNCC1(C)CN(c2c(F)cc3c(=O)c(C(=O)O)cn(C4CC4)c3c2F)C1
B: N#CC1CN(c2c(F)cc3c(=O)c(C(=O)O)cn(C4CC4)c3c2F)C1
Which of the two items, A and B , has the greater recorded MIC? Please reply using the label of the selected record. B
(B: 0.5 µg/mL, A: 0.25 µg/mL)

A: NC1CN(c2nc3c(cc2F)c(=O)c(C(=O)O)cn3-c2ccc(F)cc2F)C1
B: CC1(N)CN(c2c(F)cc3c(=O)c(C(=O)O)cn(C4CC4)c3c2F)C1
C: CC1(N)CN(c2c(F)cc3c(=O)c(C(=O)O)cn(-c4ccc(F)cc4F)c3c2F)C1
D: NC1CN(c2cc3c(cc2F)c(=O)c2c(=O)[nH]sc2n3C2CC2)C1
Ordering: ascending MIC. // ordering of labels required in reply D, B, A, C
(D: 0.06 µg/mL, B: 0.12 µg/mL, A: 0.25 µg/mL, C: 0.5 µg/mL)

----------
tested on: Enterobacter cloacae; test: Minimum inhibitory concentration (MIC)preventing growth of Enterobacter cloacae; format: functional
ENDPOINT: MIC (µg/mL)

CS(=O)(=O)OC1CN(c2c(F)cc3c(=O)c(C(=O)O)cn(C4CC4)c3c2F)C1
0.5

a: CCC1(O)CN(c2c(F)cc3c(=O)c(C(=O)O)cn(C4CC4)c3c2F)C1
b: Nc1c(F)c(N2CC(N)C2)c(F)c2c1c(=O)c(C(=O)O)cn2-c1ccc(F)cc1F
c: NCC1CN(c2cc3c(cc2F)c(=O)c(C(=O)O)cn3C2CC2)C1
d: CC1(N)CN(c2nc3c(cc2F)c(=O)c(C(=O)O)cn3C2CC2)C1
Ordering: ascending MIC. // ordering of labels required in reply b, d, c, a
(b: 0.015 µg/mL, d: 0.03 µg/mL, c: 0.25 µg/mL, a: 0.5 µg/mL)

----------
tested on: Escherichia coli; assay: Efficacy on systemic infections after oral administration in mice was determined against Escherichia coli HM-42; format: functional
ENDPOINT: ED50 (mg/kg)
Your answer is read as mg/kg, so omit the unit and give the number.

I'd like to know its ED50. The compound in question is CN(C)C1CN(c2cc3c(cc2F)c(=O)c(C(=O)O)cn3C2CC2)C1 1.3

I'd like to know its ED50. The compound in question is CNC1(C)CN(c2nc3c(cc2F)c(=O)c(C(=O)O)cn3C2CC2)C1 3

I'd like to know its ED50. The compound in question is CC1(N)CN(c2nc3c(cc2F)c(=O)c(C(=O)O)cn3-c2ccc(F)cc2)C1 1.3

I'd like to know its ED50. The compound in question is O=C(O)c1cn(C2CC2)c2cc(N3CCNCC3)c(F)cc2c1=O 3

I'd like to know its ED50. The compound in question is CC1(N)CN(c2c(F)cc3c(=O)c(C(=O)O)cn(-c4ccc(F)cc4)c3c2F)C1 3.2

----------
test system: Escherichia coli; test: Efficacy on systemic infections after oral administration in mice was determined against Escherichia coli HM-42; assay type: functional
Listed next: entries and their corresponding ED50.
Your answer is read as mg/kg, so omit the unit and give the number.

Some solved entries appear below for comparison.
CNC1CN(c2c(F)cc3c(=O)c(C(=O)O)cn(C4CC4)c3c2Cl)C1
2
CNC1CN(c2cc3c(cc2F)c(=O)c(C(=O)O)cn3C2CC2)C1
3.8
CC1(N)CN(c2c(F)cc3c(=O)c(C(=O)O)cn(C4CC4)c3c2F)C1
3.1
CNC1CN(c2c(F)cc3c(=O)c(C(=O)O)cn(-c4ccc(F)cc4F)c3c2Cl)C1
1.3
NC1CN(c2c(F)cc3c(=O)c(C(=O)O)cn(C4CC4)c3c2Cl)C1
1.1

I'd like to know its ED50. The compound in question is CC1(N)CN(c2nc3c(cc2F)c(=O)c(C(=O)O)cn3-c2ccc(F)cc2F)C1 3.1

I'd like to know its ED50. The compound in question is NC1CN(c2cc3c(cc2F)c(=O)c(C(=O)O)cn3C2CC2)C1 3.6

I'd like to know its ED50. The compound in question is CC1(N)CN(c2c(F)cc3c(=O)c(C(=O)O)cn(C4CC4)c3c2Cl)C1 2

I'd like to know its ED50. The compound in question is CN(C)C1CN(c2c(F)cc3c(=O)c(C(=O)O)cn(C4CC4)c3c2F)C1 1.7

I'd like to know its ED50. The compound in question is CNC1(C)CN(c2c(F)cc3c(=O)c(C(=O)O)cn(C4CC4)c3c2F)C1 1.4

----------
system: Bacillus cereus; assay: Minimum inhibitory concentration (MIC) preventing growth of Bacillus cereus; type: functional
ENDPOINT: MIC (µg/mL)

Some solved entries appear below for comparison.
CC1(N)CN(c2c(F)cc3c(=O)c(C(=O)O)cn(C(C)(C)C)c3c2F)C1
0.5
CC1(N)CN(c2cc3c(cc2F)c(=O)c(C(=O)O)cn3-c2ccc(F)cc2F)C1
0.25
Nc1c(F)c(N2CC(N)C2)c(F)c2c1c(=O)c(C(=O)O)cn2C1CC1
0.015
CC1(N)CN(c2cc3c(cc2F)c(=O)c(C(=O)O)cn3-c2ccc(F)cc2)C1
0.12
CC1(N)CN(c2nc3c(cc2F)c(=O)c(C(=O)O)cn3C2CC2)C1
0.12

A: CC1(O)CN(c2cc3c(cc2F)c(=O)c(C(=O)O)cn3C2CC2)C1
B: CNC1(C)CN(c2c(F)cc3c(=O)c(C(=O)O)cn(C4CC4)c3c2F)C1
C: CCn1cc(C(=O)O)c(=O)c2cc(F)c(N3CC(C)(N)C3)nc21
D: O=C(O)c1cn(C2CC2)c2c(F)c(N3CCC3)c(F)cc2c1=O
Ordering: ascending MIC. // ordering of labels required in reply A, D, B, C
(A: 0.12 µg/mL, D: 0.25 µg/mL, B: 0.5 µg/mL, C: 1 µg/mL)

----------
tested on: Enterobacter cloacae; assay: Minimum inhibitory concentration (MIC)preventing growth of Enterobacter cloacae; format: functional
ENDPOINT: MIC (µg/mL)

Some solved entries appear below for comparison.
CC1(N)CN(c2c(F)cc3c(=O)c(C(=O)O)cn(-c4ccc(F)cc4)c3c2F)C1
0.25
CCNCC1(C)CN(c2c(F)cc3c(=O)c(C(=O)O)cn(C4CC4)c3c2F)C1
0.25
CC1(O)CN(c2c(F)cc3c(=O)c(C(=O)O)cn(C4CC4)c3c2F)C1
0.5

I: CNC1(C)CN(c2nc3c(cc2F)c(=O)c(C(=O)O)cn3C(C)(C)C)C1
II: CC1(N)CN(c2c(F)cc3c(=O)c(C(=O)O)cn(C4CC4)c3c2Cl)C1
Which of the two items, I and II , has the greater recorded MIC? Please reply using the label of the selected record. I

I: CNC1CN(c2cc3c(cc2F)c(=O)c(C(=O)O)cn3C2CC2)C1
II: CC1(O)CN(c2cc3c(cc2F)c(=O)c(C(=O)O)cn3C2CC2)C1
Look at I and II . Which one has the lower recorded MIC number? Please reply using the label of the selected record. I

----------
system: Escherichia coli; assay: Minimum inhibitory concentration (MIC)preventing growth of Escherichia coli; type: functional
ENDPOINT: MIC (µg/mL)

Some solved entries appear below for comparison.
CCn1cc(C(=O)O)c(=O)c2cc(F)c(N3CC(C)(N)C3)c(Cl)c21
0.03
CNC1(C)CN(c2nc3c(cc2F)c(=O)c(C(=O)O)cn3C2CC2)C1
0.03
CC1(N)CN(c2cc3c(cc2F)c(=O)c(C(=O)O)cn3CCF)C1
0.5
CN(C)C1CN(c2cc3c(cc2F)c(=O)c(C(=O)O)cn3C2CC2)C1
0.06
CNC1CN(c2c(F)cc3c(=O)c(C(=O)O)cn(C4CC4)c3c2F)C1
0.03

1: CN(C)C1(C)CN(c2c(F)cc3c(=O)c(C(=O)O)cn(C4CC4)c3c2F)C1
2: CC1(N)CN(c2nc3c(cc2F)c(=O)c(C(=O)O)cn3-c2ccc(F)cc2)C1
3: CCNCC1(C)CN(c2c(F)cc3c(=O)c(C(=O)O)cn(C4CC4)c3c2F)C1
4: CC1(N)CN(c2c(F)cc3c(=O)c(C(=O)O)cn(CCF)c3c2F)C1
5: CC1(N)CN(c2c(F)c(N)c3c(=O)c(C(=O)O)cn(C4CC4)c3c2F)C1
Ordering: ascending MIC. // ordering of labels required in reply 5, 2, 1, 3, 4
